Each recorded value in this set is attributed to patent EP4714976A1.

# tgt: T1, extracellular domain of FGFR2c protein (Example 1) (UniProt P21802 22-377)
# T1 construct: extracellular domain
# protocolText: phage ELISA
testReadout: OD (450 nm) value
Answer as a number with no unit attached.

Item 3F5 scFv displayed on phage (scFv) scFv: EIQLQQSGAELVKPGASVKMSCKASGYTFRYYNMHWVKRTPGQGLEWIGLIYPDNGDTSYNQKFKGKATLTADTSSSTAYMQLSSLTSEDSAVYYCARGGLDYWGQGTTLTVSSGGGGSGGGGSGGGGSDIVLTQSPASLSASVGETVTITCGASENIYGALNWYQRKQGKSPQLLIYGATNLADGMSSRFSGSGSGRQYSLKISSLHPDDVATYYCQNVLSTPYTFGGGTKLEIK has what recorded OD (450 nm) value? 0.038

Recorded OD (450 nm) value of 3E3 scFv displayed on phage (scFv) scFv: QVQLQQPGAVLVKPGASVRMSCKASGYTFPYYNVHWVKRTPGQGLEWIGLIYPDNGDTSYNQKFTGKATLTADTSSSTAYMQLSSLTSEDSAVYYCARGGLDYWGQGTTLTVSAGGGGSGGGGSGGGGSDVQITQSPASLSASVGETVTITCGASENIYGALNWYQRKQGKSPQLLIYGATNLADGMSSRFSGSGSGRQYSLKISSLHPDDVATYYCQNVLSTPYTFGGGTKLEIK , please. 0.033

Would you kindly share the measured OD (450 nm) value for 3F11 scFv displayed on phage (scFv) scFv: QVQLQQSGAELVKPGASVKMSCKASGYTFAPYNIHWVRQTPGQGLEWIGLIYPDNGDTSYNQKFKAKATLTADKSSSTAYMQLSSLTSEDSAVYYCARGGFDYWGQGTSLTVSSGGGGSGGGGSGGGGSDIVMTQSQKFMSTSVGDRVSVTCKASQNVGTNVAWYQQKPGQSPKALIYSASYRYSGVPDRFTGSGSGTDFTLTISNVQSEDLAEYFCQQHYSTPFTFGSGTKLEIK ? 0.045

Could you share which OD (450 nm) value value was measured for 3H6 scFv displayed on phage (scFv) scFv: QVQLQQSGAELVKPGASVKMSCKASGYTFSFYNIHWVRQTPGQGLEWIGLIYPDNGDTSYNQKFKAKATLTADKSSSTAYMQLSSLTSEDSAVYYCARGGFDYWGQGTTLTVSSGGGGSGGGGSGGGGSDIQMTQSPASLSASVGETVTITCRASENIYSYLAWYQQKQGKSPQLLVYNAKTLAEGVPSRFSGSGSGTQFSLKINSLQPEDFGSYYCQHHYGTPYTFGGGTKLEMK ? 0.062

I'd like to know its OD (450 nm) value. The binder in question is 3B7 scFv displayed on phage (scFv) scFv: EVQLQQSGAELVKPGASVKMSCKASGYTFRYYNMHWVKRTPGQGLEWIGLIYPDNGDTSYNQKFKGKATLTADTSSSTAYMQLSSLTSEDSAVYYCARGGFDYWGQGTTLTVSSGGGGSGGGGSGGGGSDIQMTQSPASLSASVGETVTITCGASENIYGALNWYQRKQGKSPQLLIYGATNLADGMSSRFSGSGSGRQYSLKISSLHPDDVATYYCQNVLSTPYTFGGGTKLELK 0.043

Can you share its OD (450 nm) value? I mean this binder: 1A3 scFv displayed on phage (scFv) scFv: QVQLQQPGAELVKPGASVKMSCKASGYTFASYNLHWVKQTPGQGLEWIGLIYPENGDTSYNQKFKGKATLTADKSSSTAYIQLSSLTSEDSAVYFCARGGFDYWGQGTTLTVSQGGGGSGGGGSGGGGSDIQMTQSPASLSASVGETVTITCGASENIYGALNWYQRKQGKSPQLLIYGATNLADGMSSRFSGSGSGRQYSLKISSLHPDDVATYYCQNVLSTPYTFGGGTKLEIK 0.212

What OD (450 nm) value value was documented for this binder, 3D7 scFv displayed on phage (scFv) scFv: QVQLQQSGAELVKPGASVKMSCKASGYTFSFYNMHWVKRTPGRGLEWIGLIYPDNGDTSYNQKFKGKATLTADTSSSTAYMQLSSLTSEDSAVYYCARGGLDYWGQGTSLTVSSGGGGSGGGGSGGGGSEIVLTQSPASLAVSLGQRATISCKASQSVDYDGDSYMNWYQQKPGQPPKLLIYGISNRFSGVPDRFSGSGSGTDFTLKISTIKPEDLGMYYCLQGTHQPYTFGGGTKLEIK ? 0.037

Which OD (450 nm) value is listed for 3E1 scFv displayed on phage (scFv) scFv: QVQLQQPGAEVVKPGASVKMSCKASGYTFTDYYIHWVKQTPGQGLEWIGAIYPDNGDTSYNQKFKVKATLTADKSSSTAYMQLSSLTSEDSAVYYCARAFTYWGQGTLVTVSAGGGGSGGGGSGGGGSDILITQSPASLSASVGETVTITCGASENIYGALNWYQRKQGKSPQLLIYGATNLADGMSSRFSGSGSGRQYSLKISSLHPDDVATYYCQNVLSTPYTFGGGTKLEIK ? 0.056

I would be grateful if you could share the reported OD (450 nm) value for 2B1 scFv displayed on phage (scFv) scFv: EVQLQQSGAELVKPGASVKMSCKASGYTFASYNLHWVKQTPGQGLEWIGLIYPENGDTSYNQKFKGKATLTADKSSSTAYIQLSSLTSEDSAVYFCARGGFDYWGQGTSLTVSSGGGGSGGGGSGGGGSDIQMIQSPASLSVSVGETVTITCRASENIYSNLAWYQQKQGKSPQLLVYNAKTLADGVPSRFSGSGSGTQYSLKINSLQPEDFGSYYCQHFWSTPYTFGGGTKLEIK . 0.049

Look up OD (450 nm) value: 3F10 scFv displayed on phage (scFv) scFv: EVQLQQSGAELVKPGASVKMSCKASGYTFSFYNIHWVRQTPGQGLEWIGLIYPDNGDTSYNQKFKAKATLTADKSSSTAYMQLSSLTSEDSAVYYCARGGFDYWGQGTTLTVSSGGGGSGGGGSGGGGSDVLMTQSPASLSASVGETVTITCGASENIYGALNWYQRKQGKSPQLLIYGATNLADGMSSRFSGSGSGRQYSLKISSLHPDDVATYYCQNVLSTPYTFGGGTKLEIK 0.039

Which OD (450 nm) value value belongs to 3G10 scFv displayed on phage (scFv) scFv: EVQLQQSGPELVKPGASVKMSCKASGYTFATYNMHWVKQTTGQGLEWIGAIYPDNGDTFYNRKFKDKATLTADKSSTTAYMQLSSLTSEDSAVYYCARGDFAYWGQGTLVTVSAGGGGSGGGGSGGGGSDVLMTQSPASLSASVGETVTITCGASENIYGALNWYQRKQGKSPQLLIYGATNLADGMSSRFSGSGSGRQYSLKISSLHPDDVATYYCQNVLSTPYTFGGGTKLEMK ? 0.042
